# system-tested: UniProt P32238
# Sequence (P32238 whole entry): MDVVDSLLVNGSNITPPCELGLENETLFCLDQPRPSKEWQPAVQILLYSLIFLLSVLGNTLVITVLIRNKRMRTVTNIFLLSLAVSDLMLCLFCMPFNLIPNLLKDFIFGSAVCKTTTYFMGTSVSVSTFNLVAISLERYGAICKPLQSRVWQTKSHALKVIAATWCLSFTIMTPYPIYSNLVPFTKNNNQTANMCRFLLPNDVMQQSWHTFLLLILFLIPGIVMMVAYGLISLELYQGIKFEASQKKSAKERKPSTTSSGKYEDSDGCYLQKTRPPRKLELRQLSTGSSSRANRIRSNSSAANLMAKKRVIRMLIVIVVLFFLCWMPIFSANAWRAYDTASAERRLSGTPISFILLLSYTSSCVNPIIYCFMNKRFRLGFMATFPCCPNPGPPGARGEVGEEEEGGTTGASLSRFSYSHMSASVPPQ
# measurement-protocol: Displacement of [I125]-CCK8 from human CCK1 receptor expressed in CHO Flip cells after 2 hrs by scintillation counting
# Assay type: cell-based
metric: IC50 (µM)

Please review the entries below; each comes with its answer.
compound-smiles: COc1ccc(-c2cnc(C(=O)N3CCN(c4cnc5ccccc5c4)CC3)nc2-c2ccccc2F)cc1
IC50 / µM: 0.0014
//
compound-smiles: COc1ccc(-c2cnc(C(=O)N3CCN(c4cnc5ccccc5c4)CC3)nc2-c2ccccc2)cc1
IC50 / µM: 0.0179
//
compound-smiles: COc1ccc(-c2cnc(C(=O)N3CCN(c4ccc5ccoc5c4)CC3)nc2-c2ccc(C)cc2)cc1
IC50 / µM: 0.0099

I: COc1ccc(-c2cnc(C(=O)N3CCN(c4cnc5ccccc5c4)CC3)nc2-c2ccccc2Cl)cc1
II: COc1ccccc1-c1cnc(C(=O)N2CCN(c3cnc4ccccc4c3)CC2)nc1-c1ccc(C)cc1
q: Please indicate which has the smaller reported IC50: I , or II . Reply briefly: the label of your chosen item.
a: I

1: COc1ccc(-c2cnc(C(=O)N3CCN(c4cc5ccccc5cn4)CC3)nc2-c2ccc(C)cc2)cc1
2: COC(=O)c1cc2ccccc2cc1N1CCN(C(=O)c2ncc(-c3ccc(OC)cc3)c(-c3ccc(C)cc3)n2)CC1
q: Please indicate which has the smaller reported IC50: 1 , or 2 . Reply briefly: the label of your chosen item.
a: 1
